- Target: wheat germ agglutinin (WGA)
- Assay Comment: QCM biosensor kinetics, lectin over immobilized amino-GlcNAc derivative on polydopamine chip, […] fit
Value Type: Kd
Write the numeric value and follow it with the unit.

Lookup: Data request, read-out Kd, for CC(=O)N[C@H]1C(O)O[C@H](CO)[C@@H](O)[C@@H]1O (stereo partly shown)
Found: 0.0472 µM
